- Tested on: NCI/ADR-RES
- assayExplanation: NCI tumour cell line growth inhibition, 48 h
Activity calls are given as the source filed them. Rule as the data show it: active = GI50 up to about 1.1 µM and inactive = higher.
# reported GI50; entries follow
readoutName: GI50

compound: Cc1nc2ccc(C(F)(F)F)cc2nc1NCc1ccc(Cl)c(Cl)c1
readoutValue: 19.9 µM (inactive)

compound: CC1=CC(=O)c2ccc3c4ccccc4n(C)c3c2C1=O
readoutValue: > 100 µM (inactive)

compound: CSC1=N/C(=C\c2cccs2)C(=O)N1CN1CCOCC1
readoutValue: 14.3 µM (inactive)

compound: COc1cc(S(=O)(=O)Nc2nc(-c3ccc(N4C(=O)/C(=C\c5cccs5)N=C4c4ccccc4)cc3)cs2)ccc1Cl
readoutValue: > 100 µM (inactive)

compound: Oc1c(OCc2nnc(CCCCCCCCc3nnc(COc4ccc5ccccc5c4O)n3Nc3ccccc3)n2Nc2ccccc2)ccc2ccccc12
readoutValue: 11 µM (inactive)

compound: C=C1CC(COc2ccc3c(C)cc(=O)oc3c2)(c2ccccc2)OC1=O (stereo not given)
readoutValue: 2.28 µM (inactive)

compound: O=C(/C=C/c1ccc(O)c(O)c1)c1cc(O)cc(O)c1
readoutValue: 16.1 µM (inactive)

compound: COc1cc(NCc2ccc3n2-c2ccccc2OC3)cc(OC)c1OC
readoutValue: 4.25 µM (inactive)

compound: Cc1cc(-c2nc3ccc(F)cc3s2)ccc1N
readoutValue: > 100 µM (inactive)

compound: CC(C)(C)C1=C(Br)C(O)(C(C)(C)C)OP1(=O)c1ccccc1 (stereo not given)
readoutValue: > 100 µM (inactive)

----------
- System: K562
- assayExplanation: NCI tumour cell line growth inhibition, 48 h
Active and inactive are the calls of the source. Cut-off read from the data, not from the text of the source: active = GI50 up to about 1.1 µM and inactive = higher.
Outcome codes: Y for active, N for inactive

compound: NC1CCCCC1.O=P(O)(O)C(CSc1ccccc1)P(=O)(O)O
targetDesc: K562
label: N
//
compound: N=C(CC(=O)Nc1ccccn1)c1ccccc1
targetDesc: K562
label: N
//
compound: C[N+]1(C)CC[N+](C)(C)[BH-]1C(O)O
targetDesc: K562
label: N
//
compound: O=C(OC/C=C1C=C(OC(=O)c2ccccc2)/C(=N/N(C(=O)c2ccccc2)c2ccccc2)O\1)c1ccccc1
targetDesc: K562
label: Y
//
compound: COc1ccc(NCC(=O)Nn2c(-c3ccccc3)nc3ccccc3c2=O)cc1
targetDesc: K562
label: N
//
compound: CCOC(=O)COc1cccc2occc(=O)c12
targetDesc: K562
label: N
//
compound: O=C1NC(=O)C(=Cc2c3ccccc3cc3ccccc23)C(=O)N1
targetDesc: K562
label: N
//
compound: COC(CNC(=O)CNC(=O)c1ccc(C(F)(F)F)cc1)OC
targetDesc: K562
label: N
//
compound: O=C(N/C(=C\c1ccc2c(c1)OCO2)c1nc2ccccc2[nH]1)c1ccccc1
targetDesc: K562
label: N
//
compound: CC1(C)CCC(=O)NC1CC(=O)CC1NC(=O)CCC1(C)C (stereo not given)
targetDesc: K562
label: N
//
compound: O=C(CC1S/C(=N\c2ccccc2Cl)NC1=O)Nc1ccc(Cl)cc1 (stereo not given)
targetDesc: K562
label: N
//
compound: ClCCC[Si]12OCCN(CCO1)CCO2
targetDesc: K562
label: N
//
compound: O=C(/C=C/c1ccc2c(c1)OCO2)c1ccccc(=O)c1O
targetDesc: K562
label: N
//
compound: C[N+](C)(C)C1CC([N+](C)(C)C)C2c3ccccc3C21 (stereo not given)
targetDesc: K562
label: N
//
compound: C=C(Cl)/C(=C\Cl)CCC(Cl)C(C)C (stereo not given)
targetDesc: K562
label: N
//
compound: COc1ccc(C2COc3cc(O)c(O)cc3C2)cc1 (stereo not given)
targetDesc: K562
label: N
//
compound: CC(=O)c1ccc2c(c1)CC1(C2)Cc2ccc3c(c2C1=O)CCC3 (stereo not given)
targetDesc: K562
label: N
//
compound: COC1OC(=O)[C@H]2O[N+]([O-])=C(C)[C@@H]12 (stereo not given in full)
targetDesc: K562
label: N
//
compound: Cc1ccc(Cl)c2[nH]c(-c3ccccc3)cc(=O)c12
targetDesc: K562
label: N
//
compound: C=C1CC(C)(COc2ccc3c(C)cc(=O)oc3c2)OC1=O (stereo not given)
targetDesc: K562
label: Y

----------
- Test system: SK-OV-3
- assayExplanation: NCI tumour cell line growth inhibition, 48 h
Activity calls are given as the source filed them. Rule as the data show it: active = GI50 up to about 1.1 µM and inactive = higher.

compound: COc1ccc2c(-c3ccc(O)cc3)c(Oc3ccccc3)c(=O)oc2c1
GI50: 6.49 µM (inactive)

compound: COC(=O)[C@@H]1COC(=O)N1
GI50: > 100 µM (inactive)

compound: CC(C)(C)C1=C(Br)C(O)(C(C)(C)C)OP1(=O)c1ccccc1 (stereo unspecified)
GI50: > 100 µM (inactive)

compound: O=C1/C(=N/c2ccccc2)Oc2cc(O)ccc21
GI50: > 100 µM (inactive)

compound: CC(NC(=O)c1ccccc1)(C(=O)O)C(=O)O
GI50: > 100 µM (inactive)

compound: Cc1cc(C)c(C(=O)O)c(SSc2cc(C)cc(C)c2C(=O)O)c1
GI50: > 100 µM (inactive)

compound: O=C(/C=C/c1ccc(O)c(O)c1)NC(COC(=O)/C=C/c1ccc(O)c(O)c1)C(=O)O (stereo unspecified)
GI50: > 100 µM (inactive)

compound: CC(C)N(C(=O)C12C3C4C1(I)C1C2C3(I)C41C(=O)N(C(C)C)C(C)C)C(C)C (stereo unspecified)
GI50: > 100 µM (inactive)

compound: CSc1nc(C#N)c(/N=C\N(C)C)n1C
GI50: > 100 µM (inactive)

compound: Cc1c2c(c(C)c3c[n+](C)ccc13)Oc1ccccc1O2
GI50: 23.5 µM (inactive)

compound: CC1=CC(=C(c2ccc(N)c(C)c2)c2ccc(N)c(C)c2)C=CC1=N
GI50: 4.66 µM (inactive)

----------
- System: NCI-H226
- assayExplanation: NCI tumour cell line growth inhibition, 48 h
Active and inactive are the calls of the source. No stated cut-off is given here; in the data, active = GI50 up to about 1.1 µM and inactive = higher.

compound: C[N+]1(c2ccccc2)C=C(c2ccccc2)SC1=S (stereo not given)
GI50: > 100 µM (inactive)
--
compound: Cn1c2ccccc2c2c3c(c4c5ccccc5n(C)c4c21)C(=O)NC3=O
GI50: 40.7 µM (inactive)
--
compound: O[C@H]1[C@H](O)[C@@H](O)[C@@]2(O)CC[C@@H]1N2
GI50: > 100 µM (inactive)
--
compound: CC1(C)CC(=O)c2c(nc3c(ccc4ccccc43)c2-c2ccc(NC(=O)CCCCC(=O)Nc3ccc(-c4c5c(nc6c4ccc4ccccc46)CC(C)(C)CC5=O)cc3)cc2)C1
GI50: 15.2 µM (inactive)
--
compound: O=C1CS(=O)(=O)C(c2cccc(Oc3ccccc3)c2)N1c1cccc(Cl)c1Cl (stereo not given)
GI50: 35.7 µM (inactive)
--
compound: CSc1nc(C#N)c(/N=C\N(C)C)n1C
GI50: > 100 µM (inactive)
--
compound: COc1ccc2c(Cl)cc(NC(=S)Nc3ccccc3)nc2c1
GI50: 55.5 µM (inactive)
--
compound: O=C(/C=C/c1ccc(O)c(O)c1)NC(COC(=O)/C=C/c1ccc(O)c(O)c1)C(=O)O (stereo not given)
GI50: > 100 µM (inactive)
--
compound: CN1CCN(c2ccc([N+](=O)[O-])c3no[n+]([O-])c23)CC1
GI50: 0.604 µM (active)
--
compound: CC(=O)OCC1OC(n2c(-c3ccc(Cl)cc3)cc(-c3ccccc3)c(C#N)c2=S)C(OC(C)=O)C(OC(C)=O)C1OC(C)=O (stereo not given)
GI50: 4.28 µM (inactive)
--
compound: O=C(c1cccs1)N(C(=S)OC12CC3CC(CC(C3)C1)C2)c1ccccc1
GI50: 33.3 µM (inactive)
--
compound: CC(C)(C)[Si](C)(C)OCc1cccc(OCCOc2cccc(CO[Si](C)(C)C(C)(C)C)c2[N+](=O)[O-])c1[N+](=O)[O-]
GI50: > 100 µM (inactive)
--
compound: COc1ccc2c(c1)/C(=C\c1c(Cl)[nH]c3cc(C)c(OC)cc13)C(=O)N2
GI50: 6.04 µM (inactive)
--
compound: Nc1nc(=O)c(/N=N/c2ccccc2)c(C(=O)O)[nH]1
GI50: > 100 µM (inactive)
--
compound: CCC12C=CCN3CCC4(c5cc(C(c6ccc(OC)cc6)C6Cc7ccccc7N6)c(OC)cc5N(C)C4C(O)(C(=O)OC)C1O)C32 (stereo not given)
GI50: 32.7 µM (inactive)
--
compound: CCCC1(NC(=O)C(F)(F)F)CC(OC)OC2COC(c3ccccc3)OC21 (stereo not given)
GI50: > 100 µM (inactive)
--
compound: COC(=O)[C@H](Cc1ccccc1)NC(=O)CCCCCCC(=O)NO
GI50: 75.3 µM (inactive)
--
compound: COC(=O)C1CC(=O)CCC1c1ccccc1 (stereo not given)
GI50: > 100 µM (inactive)
--
compound: O=C(CC(C(=O)c1cccs1)c1cccs1)c1ccccc1Cl (stereo not given)
GI50: > 100 µM (inactive)
--
compound: CN1C(=O)C(O)CC1c1cccc(C(F)(F)F)c1 (stereo not given)
GI50: > 100 µM (inactive)
